Where these numbers come from: patent US11547681B2

assay_comment: in vitro
measurement_conditions: male, CD-1, mouse, 10 min, 1 μM
metric_name: Concentration (μM) of analyte PEA, 10 min (µM)
API: value field is a number in µM; no unit string.

Example entries and their recorded answers appear below.
>  <compound>
CCCCCCCCCCCCCCCC(=O)NCCOC(=O)CCC

>  <measured_number>
0.26

$$$$
>  <compound>
CCCCCCCCCCCCCCCC(=O)NCCOC(=O)CCC(=O)OC[C@H]1O[C@@](CO)(O[C@H]2O[C@H](CO)[C@@H](O)[C@H](O)[C@H]2O)[C@@H](O)[C@@H]1O

>  <measured_number>
0.22

$$$$
>  <compound>
CCCCCCCCCCCCCCCC(=O)NCCOC(=O)CCC(=O)OCC(COC(=O)CCCCCCC)OC(=O)CCCCCCC (stereo not shown) [Compound I-3, PEA-Succinate-Glycerol-Di-Caprylic]

>  <measured_number>
0.031

$$$$
>  <compound>
CCCCC/C=C\C/C=C\CCCCCCCC(=O)OCCNC(=O)CCCCCCCCCCCCCCC

>  <measured_number>
0.041

$$$$
>  <compound>
CC/C=C\C/C=C\C/C=C\C/C=C\C/C=C\CCCC(=O)OCCNC(=O)CCCCCCCCCCCCCCC

>  <measured_number>
0.061

$$$$

Concentration (μM) of analyte PEA, 10 min for CCCCCCCCCCCCCCCC(=O)NCCOC(=O)CCC(=O)OCC(O)CO (stereo not shown) ?
0.23

Concentration (μM) of analyte PEA, 10 min for CCCCCCCCCCCCCCCC(=O)NCCOC(=O)CCC(=O)OCC(COC(=O)CCC)OC(=O)CCC (stereo not shown) ?
0.24
